Target: Estrogen receptor (Homo sapiens)
Experiment: OT_ERa_GFPERaERE_0120: Odyssey Thera (OT) 2-hour HeLa Transcription Induction Assay for Estrogen Receptor (AID 2283382)
The source made the active and inactive calls. How the source made its calls: active means hit-call score of the fitted dose curve at least 0.9, where 1 is the maximum; inconclusive means response in the unintended direction; inactive means score below 0.9.
Your answer must be one of the following: active, inactive

Reference set (5 entries):
Cc1cc(O)ccc1Cl	inactive
Cc1ccc(O)c(C)c1	inactive
Clc1ccc(Cl)cc1	inactive
O=C(N[C@H]1CN2CCC1CC2)c1cc2ccoc2cn1	inactive
Nn1cnnc1	inactive

Outcome? CCSC(=O)N(CC)C1CCCCC1
inactive

---

Assay: APR_HepG2_MitoMembPot_24hr: Apredica 24-hour HepG2 Assay for Mitochondrial Membrane Potential (AID 2282911)
Settings: imaging, actives raise or lower the signal
The source made the active and inactive calls. How the source made its calls: active means hit-call score of the fitted dose curve at least 0.9, where 1 is the maximum; inactive means score below 0.9.
Your answer must be one of the following: 1 (yes) for active, 0 (no) for inactive

CC#Cc1cc(C)nc(Nc2ccccc2)n1	0 (no)

Outcome? C=CC(=O)NCNC(=O)C=C
0 (no)

Also, ClC1=C(Cl)[C@]2(Cl)[C@@H]3[C@@H]4C[C@@H]([C@H]5O[C@@H]45)[C@@H]3[C@@]1(Cl)C2(Cl)Cl please.
0 (no)

Also, CCOCCOC(C)=O please.
0 (no)

Also, CCCCCCCCCc1ccc(O)cc1 please.
0 (no)

Also, CC1=C2C[C@H]3[C@@H](CC=C4C[C@@H](O)CC[C@@]43C)[C@@H]2CC[C@]12O[C@@H]1C[C@H](C)CN[C@H]1[C@H]2C please.
0 (no)

---

Target: human Casein Kinase 1-delta (CK1D), CSNK1D (gene 1453)
Experiment: NVS_ENZ_hCK1D: NovaScreen (NVS) Enzymatic Assay for human Casein Kinase 1-delta (CK1D) (AID 2283148)
Results filed as inconclusive are left out. Calls of active or inactive are those of the source. How the source made its calls: active means hit-call score of the fitted dose curve at least 0.9, where 1 is the maximum; inconclusive means response in the unintended direction; inactive means score below 0.9.
Your answer must be one of the following: Yes = active, No = inactive

Reference set (5 entries):
CCC(C)c1cc([N+](=O)[O-])cc([N+](=O)[O-])c1O (stereo unspecified)	No
O=C(O)C(F)(F)C(F)(F)C(F)(F)C(F)(F)C(F)(F)C(F)(F)C(F)(F)C(F)(F)F	No
Oc1ccc(C(c2ccc(O)cc2)(C(F)(F)F)C(F)(F)F)cc1	No
O=C(NC(=O)c1c(F)cccc1F)Nc1cc(Cl)c(OC(F)(F)C(F)F)c(Cl)c1	No
O=NN(c1ccccc1)c1ccccc1	No

--- query ---
Outcome? CCNc1nc(NC(C)C)nc(SC)n1
Yes

---

Test: BSK_SAg_SRB: Viability Assessment in the BioMAP Diversity Plus: SAg Assay (AID 2283096);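 further: cells read one day after compound addition; hits may be either gain or loss of signal compared with DMSO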
Conditions: primary human HUVEC with PBMC
Method: BSK_SAg is a cell-based, multiplexed-readout assay that uses umbilical vein endothelium and peripheral blood mononuclear cells, a human vascular primary cell co-culture, with measurements taken at 24 hours after chemical dosing in a 96-well plate.BSK_SAg_SRB is an assay component measured in the BSK_SAg assay. […] This assay endpoint, BSK_SAg_SRB, was analyzed with bidirectional fitting relative to DMSO as the negative control and baseline of activity. […]
Calls of active or inactive are those of the source. How the source made its calls: active means hit-call score of the fitted dose curve at least 0.9, where 1 is the maximum; inactive means score below 0.9.
Your answer must be one of the following: yes = active, no = inactive

Reference set (2 entries):
C[C@]12CCC(=O)C=C1CC[C@@H]1[C@@H]2CC[C@@]2(C)[C@H]1CC[C@]2(C)O	no
Oc1ccc(C(c2ccc(O)cc2)(C(F)(F)F)C(F)(F)F)cc1	yes

--- query ---
Outcome? Nc1ccc(-c2ccc(N)cc2)cc1
no
